# targetOfAssay: recombinant human JAK1 kinase domain protein (Residues 854-1154) (Homo sapiens, UniProt P23458)
# Construct: human JAK1 kinase domain protein (Residues 854-1154); purchased Proteros Biostructures GmbH (Martinsried, Germany); host or cells: insect cells
# Sequence (P23458 854-1154): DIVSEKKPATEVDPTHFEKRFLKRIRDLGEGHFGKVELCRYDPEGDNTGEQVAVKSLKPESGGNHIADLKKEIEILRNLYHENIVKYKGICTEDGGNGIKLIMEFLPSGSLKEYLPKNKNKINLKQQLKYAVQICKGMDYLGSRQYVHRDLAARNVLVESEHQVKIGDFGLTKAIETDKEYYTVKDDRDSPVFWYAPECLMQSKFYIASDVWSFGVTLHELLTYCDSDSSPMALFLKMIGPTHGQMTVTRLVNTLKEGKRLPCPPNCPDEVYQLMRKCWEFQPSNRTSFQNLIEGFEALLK
# assayOverview: JAK1 biochemical assay (microfluidic mobility shift, peptide phosphorylation)
# conditionsUsed: 25 μM ATP, 1 nM total JAK1; read-out: Enzyme JAK1 Ki
readoutKind: pKi
Lab note: report pKi as minus log10 of the concentration in molar units, number only.

// lookup pKi for CS(=O)(=O)c1ccc(OC(F)F)c(-c2nn(C3CCOC3=O)cc2NC(=O)c2cnn3cccnc23)c1 (single isomer, unassigned) [Example 32] 8.96

// lookup pKi for Cn1cc(NC(=O)c2cnn3cccnc23)c(-c2cc(S(=O)(=O)c3cnn(CCN4CCC4)c3)ccc2OC(F)F)n1 [Example 53] 9.03

// lookup pKi for Cn1cc(NC(=O)c2cnn3cccnc23)c(-c2cc(S(=O)(=O)c3c[nH]cn3)ccc2OC(F)F)n1 [Example 66] 9.26

// lookup pKi for Cn1cc(NC(=O)c2cnn3cccnc23)c(-c2cc(S(=O)(=O)c3ccccc3)ccc2OC(F)F)n1 [Example 40] 9.68

// lookup pKi for Cn1cc(NC(=O)c2cnn3cccnc23)c(-c2cc(S(=O)(=O)c3ccc(=O)[nH]c3)ccc2OC(F)F)n1 [Example 43] 9.30

// lookup pKi for Cn1cc(NC(=O)c2cnn3cccnc23)c(-c2cc3c(cc2OC(F)F)NCCS3(=O)=O)n1 [Example 46] 9.59

// lookup pKi for CN1CCC[C@H]1Cn1cc(NC(=O)c2cnn3cccnc23)c(-c2cc(S(C)(=O)=O)ccc2OC(F)F)n1 [Example 72] 9.03
